# Test Target: Gamma-secretase (Homo sapiens) (UniProt Q96BI3+Q9NZ42+Q8WW43+P49768+Q92542+P49810)
# Test Protocol: Modulation of gamma secretase in HEK293 cells expressing APP-C99 assessed as increase in Abeta38 levels at 5 uM incubated for 2 hrs by sandwich ELISA
# Assay type: cell-based
Calls of active or inactive are those of the source. No cut-off for these calls is given here.
Measured Attribute: Activity

Reference set, count: 5
Cc1cn(-c2ccc(-c3csc(Nc4cc(F)c(C)cc4C)n3)cc2F)cn1: inactive
Cc1cn(-c2ccc(-c3csc(Nc4cc(F)ccc4F)n3)cc2F)cn1: inactive
Cc1cn(-c2ccc(-c3csc(Nc4c(F)cccc4F)n3)cc2F)cn1: inactive
Cc1cn(-c2ccc(-c3csc(Nc4cc(Cl)c(Cl)cc4Cl)n3)cc2F)cn1: inactive
Cc1cn(-c2ccc(-c3csc(Nc4ccc(F)c(F)c4)n3)cc2F)cn1: inactive

Now look at this one.
QUERY: What Activity value was documented for this compound, `Cc1cn(-c2ccc(-c3csc(Nc4cccc(F)c4F)n3)cc2F)cn1` ?
RESULT: inactive
